Data credit: ChEMBL document CHEMBL4387702

# protocol text: Tmax in Sprague-Dawley rat at 50 mg/kg, po by UHPLC-MS/MS analysis
# Format: ADME, organism-based
# assay setup: in vivo
endpoint label: Tmax (h)

{"columns": ["molecular string", "readout unit", "observed result"],
 "data": [
  ["COc1cc(/C=C/C(=O)N2CCC/C(=C\\c3cc(OC)c(OC)c(OC)c3)C2=O)ccc1OC(C)=O", "h", 3.3]
]}

----------
# protocol text: Cmax in Sprague-Dawley rat at 50 mg/kg, po by UHPLC-MS/MS analysis
# Assay type: ADME, organism-based
# Design: dose 50 mg/kg, route oral
# assay setup: in vivo

{"columns": ["molecular string", "readout unit", "Cmax"],
 "data": [
  ["COc1cc(/C=C/C(=O)N2CCC/C(=C\\c3cc(OC)c(OC)c(OC)c3)C2=O)ccc1OC(C)=O", "ng/mL", 113]
]}

----------
# protocol text: AUC (0 to t) in Sprague-Dawley rat at 50 mg/kg, po by UHPLC-MS/MS analysis
# Type: ADME, organism-based
# assay setup: in vivo
endpoint label: AUC(0-t) (µg·h/mL)

{"columns": ["molecular string", "observed result"],
 "data": [
  ["COc1cc(/C=C/C(=O)N2CCC/C(=C\\c3cc(OC)c(OC)c(OC)c3)C2=O)ccc1OC(C)=O", 0.231]
]}

----------
# protocol text: AUC (0 to t) in Sprague-Dawley rat at 5 mg/kg, iv by UHPLC-MS/MS analysis
# Format: ADME, organism-based
# assay setup: in vivo

{"columns": ["molecular string", "AUC(0-t) (ng·h/mL)"],
 "data": [
  ["COc1cc(/C=C/C(=O)N2CCC/C(=C\\c3cc(OC)c(OC)c(OC)c3)C2=O)ccc1OC(C)=O", 34.4]
]}

----------
# protocol text: Oral bioavailability in Sprague-Dawley rat at 50 mg/kg measured up to 24 hrs by LC-MS/MS analysis
# Assay type: ADME, organism-based
# assay setup: in vivo

{"columns": ["molecular string", "bioavailability / %"],
 "data": [
  ["COc1cc(/C=C/C(=O)N2CCC/C(=C\\c3cc(OC)c(OC)c(OC)c3)C2=O)ccc1OC(C)=O", 26.6]
]}
